For reference, MIC measured on Citrobacter Freundli:
Property measured: MIC

- Mol: "CC(C)(O/N=C(\\C(=O)N[C@H]1CN(C(=O)NS(=O)(=O)n2nc(-c3cc(=O)c(O)c[nH]3)[nH]c2=O)C1=O)c1csc(N)n1)C(=O)O"
  Property measured: "MIC"
  Result: "0.03 µg/mL"
- Mol: "Cn1cc(O)c(=O)cc1C(=O)NN1CCN(S(=O)(=O)NC(=O)N2C[C@H](NC(=O)/C(=N\\OC(C)(C)C(=O)O)c3csc(N)n3)C2=O)C1=O"
  Property measured: "MIC"
  Result: "0.5 µg/mL"
- Mol: "CC(C)(O/N=C(\\C(=O)N[C@H]1CN(C(=O)NS(=O)(=O)N2CCN(C(=O)c3cc(=O)c(O)c[nH]3)NC2=O)C1=O)c1csc(N)n1)C(=O)O"
  Property measured: "MIC"
  Result: "0.06 µg/mL"
- Mol: "Nc1nc(/C(=N/OCC(=O)O)C(=O)N[C@H]2CN(C(=O)NS(=O)(=O)N3CCN(C(=O)c4cc(=O)c(O)c[nH]4)CC3)C2=O)cs1"
  Property measured: "MIC"
  Result: "2 µg/mL"
- Mol: "CC(C)(O/N=C(\\C(=O)N[C@H]1CN(C(=O)NS(=O)(=O)N2CCN(NC(=O)c3ccn(O)c(=O)c3)C2=O)C1=O)c1csc(N)n1)C(=O)O"
  Property measured: "MIC"
  Result: "0.25 µg/mL"
- Mol: "Nc1nc(/C(=N/OCC(=O)O)C(=O)N[C@H]2CN(C(=O)NS(=O)(=O)N3CCN(NC(=O)c4[nH]ccc(=O)c4O)C3=O)C2=O)cs1"
  Property measured: "MIC"
  Result: "0.25 µg/mL"
- Mol: "Cn1c(-c2cc(=O)c(O)c[nH]2)nn(S(=O)(=O)NC(=O)N2C[C@H](NC(=O)/C(=N\\OC(C)(C)C(=O)O)c3csc(N)n3)C2=O)c1=O"
  Property measured: "MIC"
  Result: "0.03 µg/mL"
- Mol: "CC(C)(O/N=C(\\C(=O)N[C@H]1CN(C(=O)NS(=O)(=O)N2CCN(NC(=O)c3cc(=O)c(O)cn3C3CC3)C2=O)C1=O)c1csc(N)n1)C(=O)O"
  Property measured: "MIC"
  Result: "0.5 µg/mL"
- Mol: "CCCCn1cc(O)c(=O)cc1C(=O)NN1CCN(S(=O)(=O)NC(=O)N2C[C@H](NC(=O)/C(=N\\OC(C)(C)C(=O)O)c3csc(N)n3)C2=O)C1=O"
  Property measured: "MIC"
  Result: "2 µg/mL"
- Mol: "CC(C)(O/N=C(\\C(=O)N[C@H]1CN(C(=O)NS(=O)(=O)N2CCN(NC(=O)c3cccc(=O)n3O)C2=O)C1=O)c1csc(N)n1)C(=O)O"
  Property measured: "MIC"
  Result: "0.5 µg/mL"

Just for reference, patent US4975538A is where these values come from.
